- assay-overview: Antioxidant activity assessed as ABTS scavenging activity after 6 mins by spectrophotometry
- Assay type: physicochemical
measurement-name: IC50 (uM/ml)

>  <compound>
COc1cc(/C=N/NC(=O)CCc2nc3ccccc3c(=O)[nH]2)cc(OC)c1O

>  <IC50, uM/ml>
105

$$$$
>  <compound>
O=C(O)c1cc(O)c(O)c(O)c1 [GALLIC ACID]

>  <IC50, uM/ml>
60

$$$$
>  <compound>
O=C(CCc1nc2ccccc2c(=O)[nH]1)N/N=C/c1cc(O)c(O)c(O)c1

>  <IC50, uM/ml>
35

$$$$
>  <compound>
COc1ccc(/C=N/NC(=O)CCCc2nc3ccccc3c(=O)[nH]2)cc1

>  <IC50, uM/ml>
180

$$$$
>  <compound>
O=C(CCCc1nc2ccccc2c(=O)[nH]1)N/N=C/c1cc(O)c(O)c(O)c1

>  <IC50, uM/ml>
40

$$$$
>  <compound>
COc1cc(/C=N/NC(=O)CCCc2nc3ccccc3c(=O)[nH]2)ccc1O

>  <IC50, uM/ml>
115

$$$$
>  <compound>
O=C(CCc1nc2ccccc2c(=O)[nH]1)N/N=C/c1ccc([N+](=O)[O-])cc1

>  <IC50, uM/ml>
220

$$$$
>  <compound>
O=C(CCCc1nc2ccccc2c(=O)[nH]1)N/N=C/c1ccc(O)c(O)c1

>  <IC50, uM/ml>
50

$$$$
>  <compound>
O=C(CCc1nc2ccccc2c(=O)[nH]1)N/N=C/c1ccc(Cl)cc1

>  <IC50, uM/ml>
185

$$$$
>  <compound>
O=C1O[C@H]([C@@H](O)CO)C(O)=C1O [ASCORBIC ACID]

>  <IC50, uM/ml>
65

$$$$

(P) O=C(CCc1nc2ccccc2c(=O)[nH]1)N/N=C/c1ccc(O)c(O)c1
(Q) O=C(CCCc1nc2ccccc2c(=O)[nH]1)N/N=C/c1ccccc1
(R) COc1ccc(/C=N/NC(=O)CCc2nc3ccccc3c(=O)[nH]2)cc1
(S) COc1cc(/C=N/NC(=O)CCCc2nc3ccccc3c(=O)[nH]2)cc(OC)c1O
Query block: Ranking field: IC50; order: falling. In plain terms: list the labels in the order you were asked to.
Result block: Q, S, R, P

Provenance of the data: ChEMBL document CHEMBL3397041
